- experimental-system: T1, human prothrombin with His tag (human, UniProt P00734 44-622)
- T1 construct: also called h-prothrombin-his
- protocol-text: Biacore
readout-kind: pKd
# pKd: negative log10 of molar concentration; output just the value

Inquiry: What does the record list as pKd for aTM-2 (antibody, V domains shown) VH: EVQLVESGGGLVQPGGSLRLSCAASGFTFSDYYMAWVRQAPGKGLEWVSNINSDGSSTYYLDSLKSRFTISRDNSKNTLYLQMNSLKAEDTAVYYCARDHYLGNSYVFDSWGQGTTVTVSS VL: DIQMTQSPSSLSASVGDRVTITCKASEDIYNRLAWYQQKPGKAPRLIISGATSLETGVPSRFSGSGSGKDYTLTISSLQPEDFATYYCQQYWSTPWTFGGGTKVEIK ?
Reply text: 8.91

These measurements were taken from patent US20190315886A1.
